# Assay Target: Homeobox protein Hox-A13 (Mus musculus)
# Protocol Notes: inhibitors of HoxA13-DNA binding, primary screen, biochemical, fluorescence polarization, labeled oligonucleotide (AID 1185)
# Measurement Context: 15 min, higher = more signal, called active from +8 up or from −8 down
Overview of recorded z-score for various compounds
Give a plain numeric answer without units written out.

Worked set:
1) CO[C@H]1O[C@H](CO)[C@@H](OC(=O)Nc2ccccc2-c2ccccc2)[C@H](OC(=O)Nc2ccc3c(c2)OCO3)[C@@H]1OC(=O)Nc1ccc2c(c1)OCO2 :: -3.65
2) CN1C2C=C(CCCO)C(C3C(=O)N(C(N)=O)C(=O)C32)C1c1cccs1 (stereo unspecified) :: -8.5
3) CC1CC/C=C\[C@H]2OC34C=CCN(C(C)C)C(=O)[C@H]3N(CCCCCO)C(=O)[C@@H]4C2C(=O)O1 (stereo partly specified) :: -3.89
4) COCCOC(=O)N1C(=O)[C@@]2(c3ccccc31)[C@H](c1ccc(OCCO)cc1)N1[C@H](c3ccccc3)[C@H](c3ccccc3)OC(=O)[C@H]1[C@@H]2C(=O)Nc1nc2ccccc2s1 :: 0.0267
5) [N-]=[N+]=Nc1ccccc1[C@@H]1OC(c2ccc(OCCCO)cc2)=N[C@]1(CCS(=O)(=O)c1ccccc1)C(=O)NCCN1CCOCC1 :: -3.85

Report z-score for C=C[C@H](COC(C)=O)NS(=O)(=O)c1ccc(Br)cc1 please.
-0.189

Report z-score for COC(=O)[C@@]1(Cc2ccccc2)[C@H]2c3cc(C(=O)N4CCCC4)n(Cc4cc(F)cc5c4OCOC5)c3C[C@H]2CN1C(=O)c1ccccc1 please.
-5.42

Report z-score for C=CC[C@@]12N=C(c3ccc(OCCCO)cc3)O[C@@H]1c1ccccc1N(CCS(=O)(=O)c1ccccc1)C2=O please.
-2.38

----------
# System: Sam68 (KHDRBS1)
# Protocol Notes: Sam68 small-molecule binders, primary screen, biochemical, small-molecule microarray, 635 nm fluorescence (AID 1125);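 also: score merges 667 nm channel intensity with signal to noise over triplicate slides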
# Measurement Context: small-molecule microarray binding, higher = more signal
Overview of recorded composite z-score for various molecules
Give a plain numeric answer without units written out.

1) COCCOC(=O)N1C(=O)[C@@]2(c3cc(C#CC4=CCCCC4)ccc31)[C@H](c1ccccc1OCCO)N1[C@H](c3ccccc3)[C@H](c3ccccc3)OC(=O)[C@H]1[C@@H]2C(=O)N1CCc2cc(OC)c(OC)cc2C1 :: 1.3
2) [N-]=[N+]=NCc1ccccc1[C@H]1OC(c2ccc(OCCCO)cc2)=N[C@@]1(CCS(=O)(=O)c1ccccc1)C(N)=O :: 1.3
3) O=C(N1CCCCC1)[C@@]1(Cc2ccccc2)COC(c2ccc(OCCCO)cc2)=N1 :: 1.33
4) COc1ccc(NN2C(C(O)c3ccco3)C=CC3C(=O)N(C4CCCCC4)C(=O)C32)cc1 (stereo not given) :: 1.32
5) Cc1ccc(C(C)CC(O)C2C=CC3C(=O)N(c4ccccc4)C(=O)C3N2Nc2ccc(C(C)C)cc2)o1 (stereo not given) :: 1.28

Report composite z-score for Cc1ccc(F)cc1S(=O)(=O)N[C@@H]1CCN(Cc2ccc(OC(C)C)cc2)C1 please.
-0.649

Report composite z-score for COCCOC(=O)N1C(=O)[C@@]2(c3cc(C#CCNC(N)=O)ccc31)[C@H](C(=O)N1CCCCCCC1)[C@H]1C(=O)O[C@H](c3ccccc3)[C@H](c3ccccc3)N1[C@@H]2c1ccc(O)cc1 please.
1.11

Report composite z-score for COc1c(C)cc(-c2cc3c(c(Cc4ccccc4)n2)[Si](C(C)C)(C(C)C)OC3)cc1C please.
0.0189

Report composite z-score for COc1cc2c(cc1OC)CN(C(=O)[C@@H]1[C@H]3C(=O)O[C@H](c4ccccc4)[C@H](c4ccccc4)N3[C@H](c3ccccc3OCCO)[C@@]13C(=O)Nc1ccc(C#CC4(O)CCCCCC4)cc13)CC2 please.
1.3

----------
# Protocol Notes: Plasmodium falciparum growth inhibition, primary screen, strain 3D7, DAPI fluorescence, 100 nL (AID 1184);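 also: parasites grown inside human red blood cells in medium with human serum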
# Measurement Context: P. falciparum 3D7 growth, 3 d, higher = more signal
Overview of recorded z-score for various compounds
Give a plain numeric answer without units written out.

Worked set:
1. O=C1OCC=C[C@H]2OC34C=CCN(Cn5nnc6ccccc65)C(=O)[C@H]3N(CCCCCCO)C(=O)[C@@H]4[C@@H]12 (stereo partly drawn) :: -0.508
2. CCOC(=O)C[C@H]1[C@H](OC(=O)Cc2ccc3c(c2)OCO3)[C@@H](NC(=O)Cc2ccc(OC)cc2)c2cc(OCCCO)ccc2N1C(=O)c1ccccc1 :: -0.382
3. C=C(C(=O)CC[C@H](OC(=O)c1cccnc1)c1ccc(CO)o1)C(C)C :: 0.566
4. CC(C)(C)N1CC=CC23O[C@@H]4C=CCOC(=O)[C@@H]4[C@H]2C(=O)N(CCCO)[C@@H]3C1=O (stereo partly drawn) :: -1.87
5. O=C1NC(=O)C2C1C=CC(C(O)c1ccc(Br)cc1)N2Nc1ccccn1 (stereo not drawn) :: 0.284

Report z-score for O=C(CCCCCCC(=O)Nc1ccccc1)N/N=C/c1ccccc1 please.
1.01

Report z-score for O=C1O[C@@H](c2ccccc2)[C@@H](c2ccccc2)N2[C@@H](c3ccc(O)cc3)[C@]3(C(=O)Nc4ccccc43)[C@@H](C(=O)Nc3nc4ccccc4s3)[C@H]12 please.
-0.247

Report z-score for CCN(CC)c1ccc(N2CC=CC34O[C@@H]5/C=C\CCC(C)OC(=O)C5[C@H]3C(=O)N(CCO)[C@@H]4C2=O)cc1 (stereo partly drawn) please.
-1.23

----------
# Tested on: Plasmodium falciparum Sir2 (PF13_0152, Sir2A)
# Protocol Notes: pfSir2 binders on small-molecule microarrays, primary screen, biochemical, small-molecule microarray, 635 nm fluorescence (AID 1098);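 also: score merges spot fluorescence intensity with its signal-to-noise ratio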
# Measurement Context: small-molecule microarray binding, fluorescence 635 nm; higher = more signal
Overview of recorded composite z-score for various compounds

Worked set:
1. COc1cc2c(cc1OC)CN(C(=O)[C@@H]1[C@H]3C(=O)O[C@H](c4ccccc4)[C@H](c4ccccc4)N3[C@H](c3ccccc3OCCO)[C@@]13C(=O)Nc1ccc(C#CC4(O)CCCCCC4)cc13)CC2 :: 1.1
2. CC=CC(O)C1C=CC2C(=O)N(c3ccccc3)C(=O)C2N1Nc1ccc([N+](=O)[O-])cc1 (centres undefined) :: 0.563
3. COc1ccc(C(O)C2C=CC3C(=O)N(c4ccccc4)C(=O)C3N2Nc2ccc(C#N)cc2)c2ccccc12 (centres undefined) :: 1.2

Next compound, please.
Report composite z-score for COc1ccc(NN2C(C(O)c3ccccn3)C=CC3C(=O)N(C4CCCCC4)C(=O)C32)cc1 (centres undefined) please.
1.31

----------
# Protocol Notes: S. cerevisiae growth modulation with rapamycin, primary screen, strain BY4716, OD600, 96 h (AID 1091); also: test concentration not given here
# Measurement Context: higher = more signal, called active from +8 up or from −8 down
Overview of recorded z-score for various compounds
Give a plain numeric answer without units written out.

Worked set:
1. CN(C)CCCN1C(=O)[C@@]2(c3ccc([N+](=O)[O-])cc3)CC(=O)N(CC34CC5CC(CC(C5)C3)C4)[C@@H]2c2ccc(CO)cc21 :: -1.06
2. CCOC(=O)C[C@H]1[C@H](OC(=O)c2ccccc2-c2ccccc2)[C@@H](NC(=O)c2ccc3ccccc3n2)c2cc(OCCCO)ccc2N1C(=O)c1ccc2ccccc2n1 :: -0.299
3. CN(C)CCCNC(=O)[C@@H]1c2ccccc2C(=O)N(Cc2ccc(OC(F)(F)F)cc2)[C@H]1c1ccc(CO)cc1 :: -1.41
4. C=CC[C@]12N=C(c3ccc(OCCCO)cc3)O[C@H]1c1ccccc1N(C)C2=O :: 0.532
5. COc1cc(OC)c(C(O)C2C=CC3C(=O)N(c4ccccc4)C(=O)C3N2Nc2ccc(C#N)cc2)cc1Br (centres undefined) :: -0.772

Report z-score for COCCCNC(=O)[C@@]1(Sc2ccc(C)cc2)CC(=O)N(C2Cc3ccccc3C2)[C@@H]1c1ccc(CO)cc1I please.
1.43

Report z-score for C=CCOC(=O)[C@@H]1[C@H]2C(=O)O[C@H](c3ccccc3)[C@H](c3ccccc3)N2[C@H](c2ccc(OCCOC(=O)[C@H]3C[C@H]4C(=O)N[C@@H](CCCCN(C)C)C(=O)N4[C@H]3c3cccc(OCCO)c3)cc2)[C@@]12C(=O)Nc1ccc(I)cc12 please.
3.87

Report z-score for O=c1cccc(-c2ccc(C(F)(F)F)cc2)o1 please.
0.427

Report z-score for COC(=O)[C@@]1(Cc2ccc(F)cc2)[C@H]2c3cc(C(=O)N4CCCC4)n(CCc4c[nH]c5ccc(OC)cc45)c3C[C@H]2CN1C(=O)c1ccccc1 please.
2.07

Report z-score for C=C(/C(=C/C[C@@H](OC(=O)c1ccncc1)c1ccc(OCCO)cc1)c1cc(C(=O)OC)ccc1OC)C(C)C please.
0.339
